Reported values of inhibition for individual entries
# Tested on: Botulinum neurotoxin type F light chain protease (Clostridium botulinum)
# test method notes: Botulinum neurotoxin type F light chain protease inhibition, multiplex microsphere flow cytometry, validation set (AID 588459)
# test context: multiplex microsphere protease substrate cleavage assay, at 10 µM, stronger effect = higher value
endpoint label: inhibition (%)

1. CC(=O)OCC(OC(C)=O)C(OC(C)=O)C(OC(C)=O)C(=O)Nc1cccc(C)c1 (stereo not given)
3.7
2. O=C1NCC2=C1C(c1ccccc1)Nc1ccccc1N2 (stereo not given)
2.4
3. COc1ccc2[nH]c(=O)c3c(c2c1)OC(C)(C)C=C3
1.1
4. C=CCn1c(N2CCCCCC2)nc2c1c(=O)n(C)c(=O)n2C
0.2
5. CCOc1ccc(CCn2c(-c3ccco3)nc3ccccc3c2=O)cc1OCC
3.5
6. CC(=O)OCC(=O)[C@@]12OC3(CCCC3)O[C@@H]1C[C@H]1[C@@H]3CCC4=CC(=O)C=C[C@]4(C)[C@@]3(F)[C@@H](O)C[C@@]12C
0.8
7. COc1ccc(C(Cl)=C(c2ccc(OC)cc2)c2ccc(OC)cc2)cc1
1.5
8. CC(C)Oc1ccc(C2CC(=O)N(c3ccc(C(=O)O)cc3)C2=O)cc1 (stereo not given)
2.1
9. S=C(c1ccc2c(c1)OCO2)N1CCCCC1
1.1
10. C[C@H]1O[C@@H](O[C@H]2[C@@H](O)C[C@H](O[C@H]3[C@@H](O)C[C@H](O[C@H]4CC[C@@]5(C)[C@H](CC[C@@H]6[C@@H]5C[C@@H](O)[C@]5(C)[C@@H](C7=CC(=O)OC7)CC[C@]65O)C4)O[C@@H]3C)O[C@@H]2C)C[C@H](O)[C@@H]1O
2.7
11. CC1(C)C(C=C(Cl)Cl)C1C(=O)N1CCN(Cc2ccccc2)CC1 (stereo not given)
-0.6
12. CCS(=O)(=O)Nc1cc(OC)c(OC)cc1Cc1nccc2cc(OC)c(OC)cc12
0.2
13. CC(=O)c1c(C)c(C)c2n1CCn1c(C)ccc1-2
-0.2
14. CC(C)Oc1cccc(C(=O)N2CCCC2)c1
2.3
15. COP(=S)(OC)SCN1C(=O)c2ccccc2C1=O
-1.7
16. CC(=O)N1CCN(c2ccc(OC[C@H]3CO[C@](Cn4ccnc4)(c4ccc(Cl)cc4Cl)O3)cc2)CC1
-2.2
17. O=C(O)c1ccc(C(=O)C(=O)c2ccccc2)cc1
1.6
18. CC(=O)CCCCn1c(=O)c2c(ncn2C)n(C)c1=O
-1.6
19. CCNC(=O)C12CCC(C)(C(=O)O1)C2(C)C (stereo not given)
-1
20. COc1ccc(CN(CCC(c2ccccc2)c2ccc(OC(C)C)cc2)C(=O)CCl)cc1OC (stereo not given)
-3.8

---

Reported values of inhibition for individual entries
# target system: Botulinum neurotoxin type A (Clostridium botulinum) (UniProt P0DPI0)
# Sequence (P0DPI0 whole entry, looked up): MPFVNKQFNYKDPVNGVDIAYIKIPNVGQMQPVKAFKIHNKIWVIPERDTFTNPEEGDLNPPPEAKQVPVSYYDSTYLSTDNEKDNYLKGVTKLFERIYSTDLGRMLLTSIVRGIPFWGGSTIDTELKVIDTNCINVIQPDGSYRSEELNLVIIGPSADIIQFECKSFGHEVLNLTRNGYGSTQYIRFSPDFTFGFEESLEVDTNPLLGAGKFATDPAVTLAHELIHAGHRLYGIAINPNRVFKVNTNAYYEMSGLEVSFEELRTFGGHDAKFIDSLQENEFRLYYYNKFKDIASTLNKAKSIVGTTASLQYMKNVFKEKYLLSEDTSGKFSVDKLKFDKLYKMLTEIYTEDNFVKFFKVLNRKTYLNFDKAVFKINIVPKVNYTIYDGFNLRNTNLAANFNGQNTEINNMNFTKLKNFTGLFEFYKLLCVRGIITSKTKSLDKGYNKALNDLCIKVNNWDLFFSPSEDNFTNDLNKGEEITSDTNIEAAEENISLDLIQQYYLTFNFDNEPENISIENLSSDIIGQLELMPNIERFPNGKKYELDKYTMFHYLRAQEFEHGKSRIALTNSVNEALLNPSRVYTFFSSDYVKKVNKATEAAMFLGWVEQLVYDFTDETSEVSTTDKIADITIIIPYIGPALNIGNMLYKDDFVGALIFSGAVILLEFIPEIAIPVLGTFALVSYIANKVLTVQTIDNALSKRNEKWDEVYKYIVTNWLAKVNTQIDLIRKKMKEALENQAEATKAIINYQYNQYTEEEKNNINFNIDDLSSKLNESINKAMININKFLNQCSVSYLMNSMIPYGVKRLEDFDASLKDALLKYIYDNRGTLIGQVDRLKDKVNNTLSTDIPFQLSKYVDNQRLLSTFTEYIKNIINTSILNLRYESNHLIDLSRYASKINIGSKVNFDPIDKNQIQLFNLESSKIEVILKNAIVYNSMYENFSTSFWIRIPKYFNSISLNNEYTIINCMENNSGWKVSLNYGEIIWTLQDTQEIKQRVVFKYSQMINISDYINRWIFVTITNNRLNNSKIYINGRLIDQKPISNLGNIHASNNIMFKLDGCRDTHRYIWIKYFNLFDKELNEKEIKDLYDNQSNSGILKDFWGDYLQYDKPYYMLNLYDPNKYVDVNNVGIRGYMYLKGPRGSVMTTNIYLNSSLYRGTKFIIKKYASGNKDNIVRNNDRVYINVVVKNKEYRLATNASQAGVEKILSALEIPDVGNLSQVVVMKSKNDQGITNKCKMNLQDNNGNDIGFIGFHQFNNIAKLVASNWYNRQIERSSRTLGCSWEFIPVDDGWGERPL
# test method notes: BoNT/A light chain protease inhibitors, biochemical, multiplex microsphere flow cytometry, validation set (AID 588460)
# test context: at 10 µM, stronger effect = higher value
endpoint label: inhibition (%)

1) O=C1CCCCCN1Cc1ccccc1
-1.9
2) CCOC(=O)C1=C(C)NC(C)=C(C(=O)OC)C1c1cccc([N+](=O)[O-])c1 (stereo unspecified)
0.4
3) COc1ccc(Cc2nccc3cc(OC)c(OC)cc23)cc1OC
0.2
4) CC1(C#CC[N+]2(C)CCCCC2)CCC2C(O1)c1ccccc1OC2(C)C (stereo unspecified)
-0.8
5) CCCN1C[C@H](CSC)C[C@@H]2c3cccc4[nH]cc(c34)C[C@H]21
-1.6
6) COc1cc(CC(=O)NCCc2ccc(S(N)(=O)=O)cc2)cc(OC)c1OC
1.6
7) COc1cc2c(cc1OC)C(c1cc3ccccc3oc1=O)=NC(C)(C)C2
0
8) COc1ccc(C2N3CC4(C)CN2CC(C)(C3)C4)cc1OC (stereo unspecified)
-1.6
9) Nc1[nH]c(=O)ncc1F
-0.5
10) C/C=C/c1ccc(OCCCCN2CC(C)CC(C)C2)c(OC)c1 (stereo unspecified)
-0.5
11) CNCCCC12CCC(c3ccccc31)c1ccccc12
-2.1

---

# test method notes: LAP4-GFP expression modulators in yeast, confirmation, cell-based, cherry picks, flow cytometry, mother/daughter gates (AID 2271);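 further: ratio of sample to DMSO plate mean so 100% equals DMSO level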
# test context: S. cerevisiae LAP4-GFP strain, 3 h, measured here: mother cell gate response, at 10 µM, stronger effect = higher value
endpoint label: GFP response relative to DMSO (%)

1) O=c1[nH]c(=O)n(Cc2ccc(F)cc2)c(O)c1C=NCCN1CCCCC1
94.4
2) CN1C(=O)C(=Cc2ccc(SC3CCCCC3)o2)C(=O)N(C)C1=O
150
3) Cc1cc(C=C2C(=O)N(C)C(=S)N(C)C2=O)c(C)n1-c1ccncc1
117
4) CN1C(=O)NC(=O)/C(=C\C=C\c2ccccc2[N+](=O)[O-])C1=O
112
5) C[C@]12CCC(=O)C=C1CC[C@@H]1[C@@H]2CC[C@]2(C)C(=O)CC[C@@H]12
101

---

# test method notes: inhibitors of CD8+ T cell-vesicle binding, pilot screen, LFA-1/ICAM-1 modulator project, MLPCN validation set, flow cytometry (AID 2523);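 further: mean PE anti-B7-1 fluorescence of CD8+ cells relative to row control; 100% = QL9-loaded vesicles with DMSO vehicle in the same plate row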
# test context: 2C mouse CD8+ T cells, at 7 µM, stronger effect = lower value
Reported values of vesicle binding response for individual entries
endpoint label: vesicle binding response (%)

1) COc1ccc(CN2CC3CC(C2)c2cccc(=O)n2C3)cc1OC (stereo unspecified)
170
2) COC1=CC(=O)OC(/C=C/c2ccccc2)C1 (stereo unspecified)
194
3) Clc1ccc(COC(Cn2ccnc2)c2ccc(Cl)cc2Cl)cc1 (stereo unspecified)
183
4) C[C@H]1OC[C@@H](C[N+](C)(C)C)O1
144
5) Clc1ccc(C2NCCc3[nH]cnc32)cc1 (stereo unspecified)
244
6) CN1C(=O)CN=C(c2ccc(Cl)cc2)c2cc(Cl)ccc21
174
7) COc1ccc(NC2=NCC(C)S2)cc1 (stereo unspecified)
150
8) CC(C)C(=O)Nc1ccc(S(=O)(=O)N2CC3CC(C2)c2cccc(=O)n2C3)cc1 (stereo unspecified)
184
9) COc1ccccc1CN1CCCCC1c1cccnc1 (stereo unspecified)
217
10) CCOC(=O)C1=C(C)OC(N)=C(C(=O)OCC)[C@@]12C(=O)N(CC(N)=O)c1ccccc12
66.2
11) CC(C)CCC1(CN2CCCC2=O)C(=O)NC(=O)NC1=O
219

---

Reported values of GFP response relative to DMSO for individual entries
# test method notes: LAP4-GFP expression modulators in yeast, confirmation, cell-based, cherry picks, flow cytometry, mother/daughter gates (AID 2271);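 further: ratio of sample to DMSO plate mean so 100% equals DMSO level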
# test context: S. cerevisiae LAP4-GFP strain, 3 h, measured here: daughter cell gate response, at 10 µM, stronger effect = higher value
endpoint label: GFP response relative to DMSO

1. O=c1[nH]c(=O)n(Cc2ccc(F)cc2)c(O)c1C=NCCN1CCCCC1
94.4%
2. CC12CN3CC(C)(CN(C1)C31CCOCC1)C2=O
97.6%
3. C#CCOc1cc(C2C3=C(COC3=O)Nc3cc4c(cc32)OCO4)ccc1OC (stereo not given)
106%
4. O=C1/C(=C\c2ccc(Cl)c(Cl)c2)N2CCC1CC2
119%
5. C#C[C@]1(O)CC[C@H]2[C@@H]3CCC4=CC(=O)CC[C@]4(C)[C@H]3CC[C@@]21C
102%

---

# test method notes: superoxide lowering in aged yeast cells, pilot screen, validation compound set (AID 2706);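 further: yeast exposed to compound for one week at 30 degrees C before staining; 100% = mean of all compound wells on the same plate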
# test context: S. cerevisiae aging, superoxide DHE fluorescence; at 10 µM; stronger effect = lower value
endpoint label: superoxide response (% of plate) (%)

1. C[C@@H]1O[C@@H](O[C@H]2C[C@@H](O)[C@]3(CO)[C@H]4[C@H](O)C[C@]5(C)[C@@H](C6COC(=O)C6)CC[C@]5(O)[C@@H]4CC[C@]3(O)C2)[C@H](O)[C@H](O)[C@H]1O (stereo partly specified)
94.2
2. C[C@H]1CCC/C=C/C2C[C@H](O)CC2[C@H](O)/C=C/C(=O)O1 (stereo partly specified)
92.8
3. C[C@]12CC[C@@H](O)C[C@@H]1CC[C@@H]1[C@@H]2CC[C@]2(C)C(=O)CC[C@@H]12
75.3
4. Cc1c2ccncc2c(C)c2c1[nH]c1ccccc12
84.9
5. C#CCN(C)C(C)Cc1ccccc1 (stereo unspecified)
97.6
6. CC(C)[N+](C)(CCC(C(N)=O)(c1ccccc1)c1ccccc1)C(C)C
110

---

# target system: Botulinum neurotoxin type A (Clostridium botulinum) (UniProt P0DPI0)
# test method notes: BoNT/A light chain protease inhibitors, biochemical, multiplex microsphere flow cytometry, validation set (AID 588460)
# test context: at 10 µM, stronger effect = higher value
endpoint label: inhibition (%)

1. Cc1cccc(NC(=O)c2cc3ccccc3o2)c1
-0.4
2. COc1cc2cc(C)nc(Cc3cccc4ccccc34)c2cc1OC
1.3
3. CCOc1ccc(CCn2c(-c3ccco3)nc3ccccc3c2=O)cc1OCC
-0.4
4. O=C(CCN1CCC(c2ccccc2)C1)c1ccc2c(c1)OCCO2 (configuration not stated)
-0.2
5. CCc1cc2c(C)cc(=O)oc2cc1OC(=O)C1CCCN1C(=O)OC(C)(C)C (configuration not stated)
-1.6
6. O=C(NCCc1nc2ccccc2[nH]1)c1cccc(Br)c1
-1.3
7. O=C(CN1CC[n+]2c(-c3cccs3)csc21)c1ccc(Br)cc1
-0.2
8. CCc1cc2c3c(c(=O)oc2cc1O)CCCC3
2.2
9. CCN1CCn2c3c(c4cc(Cl)ccc42)CCCC31 (configuration not stated)
1.4
10. COc1cc2c(cc1OC)-c1cc(OCc3ccccc3Cl)nc(=O)n1CC2
0.1
11. CC[N+]1(C)CC2CCC(C)(C1)C2(C)C (configuration not stated)
-0.5
12. COc1ccc(C(=O)Oc2ccc3c(C)cc(=O)oc3c2C(C)=O)cc1
-0.3

Value source: PubChem BioAssay
